The measured values listed here are drawn from PubChem BioAssay (Tox21).

- Test name: Caspase-3/7 induction in HepG2 cells by small molecules, qHTS cell viability counter screen (AID 1346981); note: nearly all actives have a fitted effect of over 30% in size
- Condition parameters: CellTiter-Fluor fluorescence, 17 h; series mostly up to 92.4 µM
Records with an inconclusive call do not appear. Calls of active or inactive are those of the source. Calls come from the whole dose curve; as a rule, active = well fitted cell-killing curve with a large enough effect in the repeat runs; inconclusive = weak or mixed curves, or effect the other way; inactive = flat fitted curve, though single readings scatter.
Allowed answers: 1 (yes) = active, 0 (no) = inactive

As a guide, the following entries are already answered.
* NC(=S)c1c(Cl)cccc1Cl | 0 (no)
* OCCCl | 0 (no)
* C=CC(C)(CCC=C(C)C)OC(=O)c1ccccc1N (configuration not stated) | 0 (no)
* c1ccc2c(c1)sc1ccccc12 | 0 (no)
* Clc1ccccc1 | 1 (yes)
* CC(Oc1cc(Cl)c(Cl)cc1Cl)C(=O)O (configuration not stated) | 0 (no)

Continue with the next molecule.
Problem: Would you mind telling me which call this test gave CCC(=O)O[C@@H]1C=C2CCC3C(CCC4(C)C3CC[C@@H]4OC(=O)CC)C2CC1 (some centres not stated) ?
Solution: 0 (no)

====

- Test name: A CellTox Green Cytotoxicity Assay to monitor cytotoxicity in HepG2 cells - 32 hour (AID 1224883); note: nearly all actives have a fitted effect of over 50% in size
- Condition parameters: CellTox Green fluorescence; series mostly up to 76.8 µM
Records with an inconclusive call do not appear. Calls of active or inactive are those of the source. The call rests on the fitted dose curve; in most records, active means well fitted activation curve with a large enough effect in the repeat runs; inconclusive means weak or mixed curves; inactive means flat fitted curve, though single readings scatter.
// allowed return values: Y for active, N for inactive

- CCOC(=O)C1OC1(C)c1ccccc1 (centres undefined): N
- Nc1ccccc1C(=O)OCCc1ccccc1: Y
- CN1C(=O)CN=C(c2ccccc2)c2cc([N+](=O)[O-])ccc21: N
- O=C(O)c1cc(I)cc(I)c1I: N
- C[C@]12CC[C@H]3[C@@H](CCC4=CC(=O)CC[C@@H]43)[C@@H]1CC[C@@H]2OC(=O)CCc1ccccc1: N

Problem: Per the records of this test, what outcome belongs to Nc1ccc2c(c1)Cc1ccccc1-2 ?
Solution: N

====

- Target: Nuclear receptor subfamily 1 group I member 3 (Homo sapiens) (UniProt Q14994)
- Sequence (Q14994 whole entry, looked up): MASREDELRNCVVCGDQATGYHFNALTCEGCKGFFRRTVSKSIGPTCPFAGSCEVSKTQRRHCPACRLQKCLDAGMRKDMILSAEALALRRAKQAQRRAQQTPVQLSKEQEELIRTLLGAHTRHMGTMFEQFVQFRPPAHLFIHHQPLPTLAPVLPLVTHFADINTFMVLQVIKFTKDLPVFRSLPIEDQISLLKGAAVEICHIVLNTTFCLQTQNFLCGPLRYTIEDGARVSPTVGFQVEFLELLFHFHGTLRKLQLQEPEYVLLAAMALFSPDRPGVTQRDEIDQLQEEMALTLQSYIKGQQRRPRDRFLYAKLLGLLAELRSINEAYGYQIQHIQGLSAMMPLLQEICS
- Test name: qHTS assay to identify small molecule agonists of the constitutive androstane receptor (CAR) signaling pathway (AID 1224839); note: nearly all actives have a fitted effect of over 15% in size;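 for activation: HepG2 cells stably carrying human CAR and a CYP2B6 luciferase reporter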
- Condition parameters: HepG2 hCAR CYP2B6-luciferase, agonist mode, 24 h; series mostly up to 92.4 µM
Results filed as inconclusive are left out. The source made the active and inactive calls. The call rests on the fitted dose curve; in most records, active means well fitted activation curve with a large enough effect in the repeat runs; inconclusive means weak or mixed curves; inactive means no such curve, though single readings can be large or run the other way.
Please state which outcome applies, choosing from yes (1) = active, no (0) = inactive

- O=C(O)C(F)(F)C(F)(F)C(F)(F)C(F)(F)C(F)(F)F: no (0)
- c1ccc2c(c1)sc1ccccc12: no (0)
- CC[N+]1(CCOC(=O)C(O)(c2ccccc2)c2ccccc2)CCCCC1: no (0)
- Clc1ccc2ccccc2c1: no (0)
- CC1(C)CC(=O)CC(C)(C)N1[O]: no (0)
- CCCSP(=S)(OCC)Oc1ccc(SC)cc1 (stereo not given): yes (1)

Problem: Hi, sorry to bother you, what did the test record for C=CCOCC1CO1 (stereo not given) ?
Solution: no (0)

Problem: Dear colleague, could you share the recorded outcome for CC(C)(C#N)C(C)(C)C#N when you have a moment?
Solution: no (0)

Problem: Just curious, what result did C=CC(=O)OCC get here?
Solution: no (0)

Problem: Per the assay record, what outcome was assigned to C[CH2][Hg][S]c1ccccc1C(=O)O ?
Solution: no (0)
